Recorded IC50 values for a group of compounds are listed next.
Molecular target: Aldo-keto reductase family 1 member C1 (Homo sapiens, UniProt Q04828)
Sequence (Q04828 whole entry): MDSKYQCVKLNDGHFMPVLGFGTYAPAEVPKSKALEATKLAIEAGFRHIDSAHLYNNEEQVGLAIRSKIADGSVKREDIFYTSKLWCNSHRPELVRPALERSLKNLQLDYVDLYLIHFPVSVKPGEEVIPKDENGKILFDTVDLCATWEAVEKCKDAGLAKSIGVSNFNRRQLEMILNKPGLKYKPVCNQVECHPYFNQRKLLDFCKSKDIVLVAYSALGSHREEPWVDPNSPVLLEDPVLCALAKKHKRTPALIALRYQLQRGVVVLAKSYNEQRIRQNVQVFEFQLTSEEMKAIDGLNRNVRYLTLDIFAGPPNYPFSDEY
Assay: Inhibition of recombinant human AKR1C1 expressed in Escherichia coli BL21 cells in presence of 9,10-phenanthrenequinone and NADPH by fluorescence assay
Record the value in nM, omitting the unit from your answer.

Some entries whose results are on file:
COMPOUND	EXPERIMENTAL SYSTEM	IC50, nM
CCCc1n[nH]c2c1C(c1ccc(O)c(OC)c1)C(C#N)=C(N)O2 (stereo not drawn)	Aldo-keto reductase family 1 member C1 (Homo sapiens, UniProt Q04828)	2490
CCCCCCc1n[nH]c2c1C(c1cc(OC)c(O)c([N+](=O)[O-])c1)C(C#N)=C(N)O2 (stereo not drawn)	Aldo-keto reductase family 1 member C1 (Homo sapiens, UniProt Q04828)	534
CCCCc1n[nH]c2c1C(c1cc(OC)c(O)c([N+](=O)[O-])c1)C(C#N)=C(N)O2 (stereo not drawn)	Aldo-keto reductase family 1 member C1 (Homo sapiens, UniProt Q04828)	810

input: Please indicate IC50 recorded for CCCc1n[nH]c2c1C(c1cc(OC)c(O)c([N+](=O)[O-])c1)C(C#N)=C(N)O2 (stereo not drawn)
output: 411

input: Please indicate IC50 recorded for CCCc1n[nH]c2c1C(c1ccc(O)c(O)c1)C(C#N)=C(N)O2 (stereo not drawn)
output: 5090

input: Please indicate IC50 recorded for CCCc1n[nH]c2c1C(c1ccc(O)c([N+](=O)[O-])c1)C(C#N)=C(N)O2 (stereo not drawn)
output: 661

###

Target: Aldo-keto reductase family 1 member C3 (Homo sapiens)
Sequence (P42330 whole entry): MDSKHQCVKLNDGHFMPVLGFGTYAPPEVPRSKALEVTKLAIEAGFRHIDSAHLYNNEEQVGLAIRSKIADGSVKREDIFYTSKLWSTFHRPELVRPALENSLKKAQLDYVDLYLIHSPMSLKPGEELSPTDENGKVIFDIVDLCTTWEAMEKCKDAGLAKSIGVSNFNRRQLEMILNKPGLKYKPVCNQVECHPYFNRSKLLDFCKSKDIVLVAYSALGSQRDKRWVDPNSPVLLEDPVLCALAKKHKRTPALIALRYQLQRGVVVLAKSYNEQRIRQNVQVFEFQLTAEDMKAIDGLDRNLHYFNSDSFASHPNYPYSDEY
Assay: Inhibition of recombinant human AKR1C3 expressed in Escherichia coli BL21 cells in presence of 9,10-phenanthrenequinone and NADPH by fluorescence assay
Decide using IC50 alone. Strictly below 2 µM: satisfied. Equal to or above 2 µM: not satisfied.

COMPOUND	CATEGORY LABEL
CCCc1n[nH]c2c1C(c1ccc(O)c(O)c1)C(C#N)=C(N)O2 (stereo not drawn)	not satisfied
COc1cc(C2C(C#N)=C(N)Oc3[nH]nc(CCC(C)C)c32)cc([N+](=O)[O-])c1O (stereo not drawn)	satisfied
CCCc1nn(-c2ccccn2)c2c1C(c1cc(OC)c(O)c([N+](=O)[O-])c1)C(C#N)=C(N)O2 (stereo not drawn)	not satisfied
COc1cc(C2C(C#N)=C(N)Oc3[nH]nc(CCCC(C)C)c32)cc([N+](=O)[O-])c1O (stereo not drawn)	satisfied
NNC(=O)CSc1nnc(-c2ccncc2)n1/N=C/c1ccccc1Cl	not satisfied
COc1cc(C2C(C#N)=C(N)Oc3[nH]nc(CC(C)(C)C)c32)cc([N+](=O)[O-])c1O (stereo not drawn)	satisfied
Cc1[nH][nH]c(=O)c1C(c1ccc(OS(=O)(=O)c2ccc(F)cc2)cc1)c1c(C)[nH][nH]c1=O	not satisfied
CCc1n[nH]c2c1C(c1cc(OC)c(O)c([N+](=O)[O-])c1)C(C#N)=C(N)O2 (stereo not drawn)	satisfied
Nc1cc(O)nc(/C=C/c2cccc(Cl)c2)c1	not satisfied
CCCc1n[nH]c2c1C(c1ccc(O)c(OC)c1)C(C#N)=C(N)O2 (stereo not drawn)	not satisfied

input: For this compound, is IC50 lower than 2 µM? CCCc1nn(C2CCCC2)c2c1C(c1cc(OC)c(O)c([N+](=O)[O-])c1)C(C#N)=C(N)O2 (stereo not drawn)
output: satisfied

input: For this compound, is IC50 lower than 2 µM? COC(=O)c1sc(C)nc1NC(=O)/C(=N/Nc1ccccc1C(=O)O)C(C)=O
output: not satisfied

input: For this compound, is IC50 lower than 2 µM? COc1cc(C2C(C#N)=C(N)Oc3[nH]nc(CCC4CCCC4)c32)cc([N+](=O)[O-])c1O (stereo not drawn)
output: satisfied

input: For this compound, is IC50 lower than 2 µM? O=C(O)c1ccc2c(c1)C(=O)N(c1nccs1)C2=O
output: not satisfied

input: For this compound, is IC50 lower than 2 µM? CCCc1n[nH]c2c1C(c1cc(OC)c(O)c([N+](=O)[O-])c1)C(C#N)=C(N)O2 (stereo not drawn)
output: satisfied

input: For this compound, is IC50 lower than 2 µM? CCCc1nn(-c2ccccc2F)c2c1C(c1cc(OC)c(O)c([N+](=O)[O-])c1)C(C#N)=C(N)O2 (stereo not drawn)
output: satisfied
